target: S100B (Homo sapiens); construct: made in house; host or cells: Escherichia coli BL21(DE3); test: Pull-down assay with immobilized protein and LSM libraries; type: binding; details: H14 library; 1:1 binding assumed; read-out: Surface mapping KD (apparent)
Sequence (P04271 whole entry): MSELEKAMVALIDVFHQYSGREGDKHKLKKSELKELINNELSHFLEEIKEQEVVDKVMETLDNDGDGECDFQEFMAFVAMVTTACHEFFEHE
pKd: −log10 of the molar value.
Each entry below lists one item and its recorded pKd value.
assay metric: pKd

compound: NC(=O)[C@H]1CCCC[C@@H]1NC(=O)C[C@H](Cc1c[nH]c2ccccc12)NC(=O)[C@H]1CCCC[C@@H]1NC(=O)[C@H]1CCCC[C@@H]1NC(=O)C[C@H](CO)NC(=O)[C@H]1CCCC[C@@H]1N [H14 SW]
assay metric: pKd
reported result: 4.10
--
compound: CC(C)C[C@@H](CC(=O)N[C@H]1CCCC[C@@H]1C(N)=O)NC(=O)[C@H]1CCCC[C@@H]1NC(=O)[C@H]1CCCC[C@@H]1NC(=O)C[C@H](C)NC(=O)[C@H]1CCCC[C@@H]1N [H14 AL]
assay metric: pKd
reported result: 3.97
--
compound: CSCC[C@@H](CC(=O)N[C@H]1CCCC[C@@H]1C(N)=O)NC(=O)[C@H]1CCCC[C@@H]1NC(=O)[C@H]1CCCC[C@@H]1NC(=O)C[C@@H](NC(=O)[C@H]1CCCC[C@@H]1N)C(C)C [H14 VM]
assay metric: pKd
reported result: 4.03
